# Tested on: SF-539 CNS
# test.method.notes: NCI tumour cell line growth inhibition, 48 h
Attribute: TGI
Answer in µM, number only, no unit symbol.

// below: answered molecules
{"molecule": "COc1ccc(C(=O)/C=C/c2c(C(F)(F)F)nc3sccn23)cc1OC", "TGI / µM": 8.52}
{"molecule": "O=C1/C(=C/c2ccc3c(c2)OCO3)CCC1CN1CCOCC1 (stereo unspecified)", "TGI / µM": 28.1}
{"molecule": "CCN1CN(c2ccccc2)C2(CCN(CCCSc3ccc(F)cc3)CC2)C1=O", "TGI / µM": 21.5}
{"molecule": "N#Cc1c(-c2ccc(Cl)cc2)c(C#N)c(=O)n(NS(=O)(=O)c2ccccc2)c1S", "TGI / µM": 42.1}

Next:
I would be grateful if you could share the reported TGI for "Cc1cc(NC(=O)NC(=O)c2ccccc2N)ccc1Oc1ncc(Br)cn1" . 0.287

###

Attribute: TGI
# System: NCI-H522 lung
# test.method.notes: NCI tumour cell line growth inhibition, 48 h
Answer in µM, number only, no unit symbol.

// below: answered compounds
{"compound": "FC(F)(F)C(C1=NC(C(F)(F)F)(C(F)(F)F)N=C(N2CCOCC2)O1)C(F)(F)F", "TGI / µM": 46.2}
{"compound": "COC(=O)C1=C(C(=O)OC)C2C(C)=CC(C)=CN2C(C#N)=C(SC)S1 (stereo not given)", "TGI / µM": 46.7}
{"compound": "NC1=C(Br)C(=O)c2ncccc2C1=O", "TGI / µM": 0.766}

Param readout = TGI; param system = NCI-H522 lung; param query = "O=Cc1cn(Cc2cccc(Cl)c2)c2ccccc12" ; response: value 45.7

###

# Tested on: NCI-H522 lung
# test.method.notes: NCI tumour cell line growth inhibition, 48 h
assay.endpoint: log10(TGI) (log10 of the value in µM)
Hey, these are logged values: log10 of TGI, µM being the unit before logging.

// below: answered compounds
{"compound": "C=C1CC2(C[C@@H](c3ccccc3)O[C@@H](c3ccccc3)C2)OC1=O (stereo partly specified)", "log10(TGI)": 0.48}
{"compound": "CC(/C(=N/NC(=O)C(N)=O)c1c(Cl)ccc(Cl)c1O)C1(O)C(=O)Nc2ccccc21 (stereo unspecified)", "log10(TGI)": 1.65}
{"compound": "Cc1ccc2c(c1C)-c1c(ccc(C)c1C)C(=O)C2=O", "log10(TGI)": -0.39}

Param readout = log10(TGI); param system = NCI-H522 lung; param query = "CCN1CCN(CC(=O)Nc2nc3ccc(NCc4ccc(Cl)cc4)cc3s2)CC1" ; response: value 0.72

"O=c1c2cccc3cccc(c4oc5c6cccc7cccc(c(=O)c5c14)c76)c32" , same question. 1.00

Nc1ccc(C(=O)NN2C(=O)C(Cl)C2c2cc(Br)ccc2O)cc1 (stereo unspecified) , same question. 1.59

"NC(=O)c1cc([N+](=O)[O-])c(Cl)c([N+](=O)[O-])c1" , same question. 0.55

O=C1/C(=C/c2ccc3c(c2)OCO3)CCC1CN1CCOCC1 (stereo unspecified) , same question. 0.44

CC(C)(C)[Si](C)(C)OCC1OC(n2ccc(=O)[nH]c2=O)C(O[Si](C)(C)C(C)(C)C)[C@@]12O[C@H]2C(N)=O (stereo partly specified) , same question. 0.87

Every entry's value here was drawn from PubChem BioAssay (NCI).
